molecular target: human factor Xa (Homo sapiens, UniProt P00742)
Sequence (P00742 235-488 limits assumed): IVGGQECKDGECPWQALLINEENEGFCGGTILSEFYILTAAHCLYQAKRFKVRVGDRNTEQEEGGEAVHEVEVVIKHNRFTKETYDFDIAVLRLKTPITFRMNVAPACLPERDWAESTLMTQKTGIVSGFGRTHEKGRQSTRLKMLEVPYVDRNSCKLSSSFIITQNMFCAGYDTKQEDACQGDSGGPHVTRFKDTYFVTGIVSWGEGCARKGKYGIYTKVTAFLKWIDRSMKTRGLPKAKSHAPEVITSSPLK
Sequence (P00742 41-179 partner limits assumed): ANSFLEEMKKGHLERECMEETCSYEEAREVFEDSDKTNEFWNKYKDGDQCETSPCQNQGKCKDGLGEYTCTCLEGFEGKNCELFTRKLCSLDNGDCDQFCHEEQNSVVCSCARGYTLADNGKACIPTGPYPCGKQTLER
assay endpoint: pKi
Just the number, please; pKi means minus log10 of the concentration in mol/L.

Consider the reported pKi for these molecules:
compound_string=COCc1ncc(C(=O)NC2CCN(C(C)C)CC2)n1Cc1cc(-c2ccc(Cl)s2)on1 assay_endpoint=pKi data_value=7.07
compound_string=CC(C)N1CCC(NC(=O)c2c(Cl)nc(-c3ccccc3)n2Cc2cc(-c3ccc(Cl)s3)on2)CC1 assay_endpoint=pKi data_value=8.15

Switching to the query record.
IN: Requested field: pKi. Item: O=C(NC1CCN(c2ccncc2)CC1)c1nccn1Cc1cc(-c2ccc(Cl)s2)on1
OUT: 6.93

* * *

biological target: human factor Xa (Homo sapiens, UniProt P00742)
Reported Ki values for the following compounds.
Express the result in nM but write the number alone.

Consider the reported Ki for these compounds:
compound_string=CC(C)N1CCC(NC(=O)c2nc(C(=O)O)cn2Cc2cc(-c3ccc(Cl)s3)on2)CC1 data_value=117
compound_string=CCOC(=O)c1ncc(C(=O)NC2CCN(C(C)C)CC2)n1Cc1cc(-c2ccc(Cl)s2)on1 data_value=8
compound_string=Cc1nc(Br)n(Cc2cc(-c3ccc(Cl)s3)on2)c1C(=O)NC1CCN(C(C)C)CC1 data_value=3
compound_string=CC(C)c1ncc(C(=O)NC2CCN(C(C)C)CC2)n1Cc1cc(-c2ccc(Cl)s2)on1 data_value=254
compound_string=COCc1ncc(C(=O)NC2CCN(C(C)C)CC2)n1CC(=O)Nc1ccc(Cl)cc1 data_value=35
compound_string=CC(C)N1CCC(NC(=O)c2nc(C(=O)N(C)C)cn2Cc2cc(-c3ccc(Cl)s3)on2)CC1 data_value=136

Switching to the query record.
IN: Requested field: Ki. Item: CC(C)N1CCC(NC(=O)c2nc(C(=O)NCCO)cn2Cc2cc(-c3ccc(Cl)s3)on2)CC1
OUT: 77

* * *

Reported Ki values for the following compounds.
molecular target: human factor Xa (Homo sapiens, UniProt P00742)
Express the result in nM but write the number alone.

IN: Requested field: Ki. Item: CC(C)N1CCC(NC(=O)c2c(Cl)nc(-c3ccccc3)n2CC(=O)Nc2ccc(Cl)cn2)CC1
OUT: 103

IN: Requested field: Ki. Item: CC(C)N1CCC(NC(=O)c2nc(C(=O)OCC(=O)OC(C)(C)C)cn2Cc2cc(-c3ccc(Cl)s3)on2)CC1
OUT: 128

IN: Requested field: Ki. Item: CC(C)N1CCC(NC(=O)c2nc(C(=O)N3CC(O)C3)cn2Cc2cc(-c3ccc(Cl)s3)on2)CC1
OUT: 62

IN: Requested field: Ki. Item: CC(C)N1CCC(NC(=O)c2nccn2Cc2cc(-c3ccc(Cl)s3)on2)CC1
OUT: 49

IN: Requested field: Ki. Item: Cc1nc(-c2ncc(C(=O)NC3CCN(C(C)C)CC3)n2Cc2cc(-c3ccc(Cl)s3)on2)cs1
OUT: 243

IN: Requested field: Ki. Item: COC(=O)CCc1cn(Cc2cc(-c3ccc(Cl)s3)on2)c(C(=O)NC2CCN(C(C)C)CC2)n1
OUT: 37

Hello, the source for this data is patent US7358268B2, in case you need it.
